tested on: HT-29; assay: Antiproliferative activity against human HT-29 cells assessed as cell viability at 30 uM after 72 hrs under hypoxic conditions by MTT assay relative to control; type: functional; conditions: HT-29, 72 h, read-out: Activity
assay.metric: viability at 30 µM (%)

[[record]]
compound = "O=C(NCc1ccccc1)Nc1ccc2[nH]c(=O)n(O)c(=O)c2c1"
endpoint_result = 33.4

[[record]]
compound = "O=c1[nH]c2cc(Cl)cc(Cl)c2c(=O)n1O"
endpoint_result = 93

[[record]]
compound = "O=c1[nH]c2cc(Cl)c([N+](=O)[O-])cc2c(=O)n1O"
endpoint_result = 41.6

[[record]]
compound = "O=c1[nH]c2cc(C(F)(F)F)c([N+](=O)[O-])cc2c(=O)n1O"
endpoint_result = 38.6

[[record]]
compound = "O=C1C=CCN1c1cc2c(=O)n(O)c(=O)[nH]c2cc1Cl"
endpoint_result = 20.6

[[record]]
compound = "O=c1[nH]c2cc(Cl)c(Cl)cc2c(=O)n1O"
endpoint_result = 93.3

[[record]]
compound = "O=c1[nH]c2ccc([N+](=O)[O-])cc2c(=O)n1O"
endpoint_result = 94.7

[[record]]
compound = "CC(=O)Nc1nnc(S(N)(=O)=O)s1 [ACETAZOLAMIDE]"
endpoint_result = 107

